Measured EC50, listed per entry for reference.
Test system: P388
ASSAY PROCEDURE: Effect against cell growth of the P388 lymphocytic leukemia (PS system)
Type: functional
RUN CONDITIONS: Mus musculus, read-out: ED50 (the source's name)
Numeric answer only, unit ng/mL assumed.

Short answer for CCC(C)[C@@H]([C@H](CC(=O)N1CCC[C@H]1[C@H](OC)[C@H](C)C(=O)N[C@@H](Cc1ccccc1)c1nccs1)OC)N(C)C(=O)[C@@H](NC(=O)[C@H](C(C)C)N(C)C)C(C)C (some centres undefined) : EC50 was 620

Short answer for CC[C@@H](C)[C@H]([C@H](CC(=O)N1CCC[C@H]1[C@@H](OC)[C@H](C)C(=O)N[C@@H](Cc1ccccc1)c1nccs1)OC)N(C)C(=O)[C@@H](NC(=O)[C@H](C(C)C)N(C)C)C(C)C : EC50 was 630

Short answer for CC[C@@H](C)[C@@H]([C@@H](CC(=O)N1CCC[C@H]1[C@H](OC)[C@@H](C)C(=O)N[C@@H](Cc1ccccc1)c1nccs1)OC)N(C)C(=O)[C@@H](NC(=O)[C@H](C(C)C)N(C)C)C(C)C : EC50 was 0.049

Short answer for CC[C@@H](C)[C@H]([C@H](CC(=O)N1CCC[C@H]1[C@H](OC)[C@H](C)C(=O)N[C@@H](Cc1ccccc1)c1nccs1)OC)N(C)C(=O)[C@@H](NC(=O)[C@H](C(C)C)N(C)C)C(C)C : EC50 was 150

---

Tested on: P388
ASSAY PROCEDURE: Effect against cell growth of the P388 lymphocytic leukemia (PS system)
Format: functional
RUN CONDITIONS: Mus musculus, read-out: ED50 (the source's name)
QUANTITY MEASURED: EC50 (µg/mL)
Numeric answer only, unit µg/mL assumed.

Short answer for CC[C@H](C)[C@@H]([C@@H](CC(=O)N1CCC[C@H]1[C@H](OC)[C@@H](C)C(=O)N[C@@H](Cc1ccccc1)c1nccs1)OC)N(C)C(=O)[C@@H](NC(=O)[C@H](C(C)C)N(C)C)C(C)C [DOLASTATIN-10] : EC50 was 0.001

---

Measured EC50, listed per entry for reference.
System: P388
ASSAY PROCEDURE: Effect against cell growth of the P388 lymphocytic leukemia (PS system)
Type: functional
RUN CONDITIONS: Mus musculus, read-out: ED50 (the source's name)
Numeric answer only, unit µg/mL assumed.

Study these solved cases before continuing.
CCC(C)[C@H]([C@H](CC(=O)N1CCC[C@H]1[C@H](OC)[C@@H](C)C(=O)N[C@@H](Cc1ccccc1)c1nccs1)OC)N(C)C(=O)[C@@H](NC(=O)[C@H](C(C)C)N(C)C)C(C)C (some centres undefined)
0.0032
CC[C@@H](C)[C@H]([C@H](CC(=O)N1CCC[C@H]1[C@H](OC)[C@@H](C)C(=O)N[C@@H](Cc1ccccc1)c1nccs1)OC)N(C)C(=O)[C@@H](NC(=O)[C@H](C(C)C)N(C)C)C(C)C
0.0032
CC[C@@H](C)[C@@H]([C@@H](CC(=O)N1CCC[C@H]1[C@@H](OC)[C@@H](C)C(=O)N[C@@H](Cc1ccccc1)c1nccs1)OC)N(C)C(=O)[C@@H](NC(=O)[C@H](C(C)C)N(C)C)C(C)C
0.0039
CC[C@@H](C)[C@@H]([C@H](CC(=O)N1CCC[C@H]1[C@H](OC)[C@@H](C)C(=O)N[C@@H](Cc1ccccc1)c1nccs1)OC)N(C)C(=O)[C@@H](NC(=O)[C@H](C(C)C)N(C)C)C(C)C
0.6
CC[C@@H](C)[C@H]([C@H](CC(=O)N1CCC[C@H]1[C@@H](OC)[C@@H](C)C(=O)N[C@@H](Cc1ccccc1)c1nccs1)OC)N(C)C(=O)[C@@H](NC(=O)[C@H](C(C)C)N(C)C)C(C)C
0.2
CC[C@@H](C)[C@@H]([C@H](CC(=O)N1CCC[C@H]1[C@H](OC)[C@H](C)C(=O)N[C@@H](Cc1ccccc1)c1nccs1)OC)N(C)C(=O)[C@@H](NC(=O)[C@H](C(C)C)N(C)C)C(C)C
0.41

Short answer for CC[C@@H](C)[C@@H]([C@@H](CC(=O)N1CCC[C@H]1[C@H](OC)[C@H](C)C(=O)N[C@@H](Cc1ccccc1)c1nccs1)OC)N(C)C(=O)[C@@H](NC(=O)[C@H](C(C)C)N(C)C)C(C)C : EC50 was 0.0056

Short answer for CCC(C)[C@H]([C@H](CC(=O)N1CCC[C@H]1[C@H](OC)[C@H](C)C(=O)N[C@@H](Cc1ccccc1)c1nccs1)OC)N(C)C(=O)[C@@H](NC(=O)[C@H](C(C)C)N(C)C)C(C)C (some centres undefined) : EC50 was 0.27

Short answer for CC[C@@H](C)[C@@H]([C@@H](CC(=O)N1CCC[C@H]1[C@@H](OC)[C@H](C)C(=O)N[C@@H](Cc1ccccc1)c1nccs1)OC)N(C)C(=O)[C@@H](NC(=O)[C@H](C(C)C)N(C)C)C(C)C : EC50 was 0.039

Short answer for CCC(C)[C@@H]([C@@H](CC(=O)N1CCC[C@H]1[C@H](OC)[C@H](C)C(=O)N[C@@H](Cc1ccccc1)c1nccs1)OC)N(C)C(=O)[C@@H](NC(=O)[C@H](C(C)C)N(C)C)C(C)C (some centres undefined) : EC50 was 0.0016

Source listed as ChEMBL document CHEMBL1125022.
